Test system: S. aureus ATCC 29213
procedure.details: MIC determination, S. aureus ATCC 29213
Assay type: cell-based, Staphylococcus aureus
condition: Table 1
Please note: MIC S. aureus ATCC 29213 exactly at 1 micrograms per ml is no. Only values below 1 micrograms per ml get yes.

{"molecule": "Oc1ccc(Cl)c2cccnc12 [Compound 13]", "class.name": "yes"}
{"molecule": "Oc1cccc2cccnc12 [Compound 83, 8-hydroxyquinoline]", "class.name": "no"}
{"molecule": "Oc1cccc2cccnc12 [Compound 68, 8-hydroxyquinoline]", "class.name": "no"}
{"molecule": "Oc1cccc2cccnc12 [Compound 29, 8-hydroxyquinoline]", "class.name": "yes"}
{"molecule": "Oc1ccc(F)c2cccnc12 [Compound 12]", "class.name": "yes"}
{"molecule": "Oc1ccc(F)c2cccnc12 [Compound 58]", "class.name": "no"}
{"molecule": "Oc1cccc2cccnc12 [Compound 93, 8-hydroxyquinoline]", "class.name": "no"}
{"molecule": "Oc1cccc2cccnc12 [Compound 18, 8-hydroxyquinoline]", "class.name": "yes"}
{"molecule": "Oc1cccc2cccnc12 [Compound 82, 8-hydroxyquinoline]", "class.name": "no"}
{"molecule": "Cc1ccnc2c(O)cccc12 [Compound 14]", "class.name": "yes"}
{"molecule": "Oc1cccc2cccnc12 [Compound 86, 8-hydroxyquinoline]", "class.name": "no"}
{"molecule": "Oc1cccc2cccnc12 [Compound 15, 8-hydroxyquinoline]", "class.name": "yes"}
{"molecule": "Oc1c(Cl)cc(Cl)c2cccnc12 [Compound 23]", "class.name": "yes"}
{"molecule": "Oc1ccc(F)c2cccnc12 [Compound 57]", "class.name": "no"}
